Test system: Mycobacterium tuberculosis
Experiment: Inhibition of multidrug-resistant Mycobacterium tuberculosis PT12 clinical isolate QcrB assessed as reduction in bacterial growth by resazurin reduction microplate assay
quantity-kind: MIC

line-notation	MIC
NNC(=O)c1ccncc1	72.9 µM
CO[C@H]1/C=C/O[C@@]2(C)Oc3c(C)c(O)c4c(O)c(c(/C=N/N5CCN(C)CC5)c(O)c4c3C2=O)NC(=O)/C(C)=C\C=C\[C@H](C)[C@H](O)[C@@H](C)[C@@H](O)[C@@H](C)[C@H](OC(C)=O)[C@@H]1C	> 48.6 µM
COc1ccc2nc(C)cc(OCc3ccc(Cl)c(Cl)c3)c2c1	0.5 µM

Answer for every listed entry: what is its MIC? The entries follow.
1. COc1ccc2nc(C)cc(OCc3ccc(C(C)C)cc3)c2c1
2. COc1ccc2nc(C)cc(OCC(=O)c3ccccc3)c2c1
3. COc1ccc2nc(C)cc(OCC(=O)c3cccc(Cl)c3)c2c1

[reply]
["1 µM", "2 µM", "0.9 µM"]

###

Tested on: Mycobacterium tuberculosis
Assay: Inhibition of multidrug-resistant Mycobacterium tuberculosis PT2 clinical isolate QcrB assessed as reduction in bacterial growth by resazurin reduction microplate assay
Exercise: state measured MIC for each of the compounds provided.

Some compounds with recorded MIC:
line-notation	measured-on	quantity-kind	test-result
COc1ccc2nc(C)cc(OCC(=O)c3ccccc3)c2c1	Mycobacterium tuberculosis	MIC	2 µM
CO[C@H]1/C=C/O[C@@]2(C)Oc3c(C)c(O)c4c(O)c(c(/C=N/N5CCN(C)CC5)c(O)c4c3C2=O)NC(=O)/C(C)=C\C=C\[C@H](C)[C@H](O)[C@@H](C)[C@@H](O)[C@@H](C)[C@H](OC(C)=O)[C@@H]1C	Mycobacterium tuberculosis	MIC	> 48.6 µM
COc1ccc2nc(C)cc(OCc3ccc(C(C)C)cc3)c2c1	Mycobacterium tuberculosis	MIC	0.5 µM
COc1ccc2nc(C)cc(OCC(=O)c3cccc(Cl)c3)c2c1	Mycobacterium tuberculosis	MIC	0.5 µM

# evaluate next
[ask] Quick check: MIC of COc1ccc2nc(C)cc(OCc3ccc(Cl)c(Cl)c3)c2c1 ?
[reply] 0.2 µM

Values from ChEMBL document CHEMBL4680209
